Target: Paired box protein Pax-8 (Homo sapiens, UniProt Q06710)
Sequence (Q06710 whole entry): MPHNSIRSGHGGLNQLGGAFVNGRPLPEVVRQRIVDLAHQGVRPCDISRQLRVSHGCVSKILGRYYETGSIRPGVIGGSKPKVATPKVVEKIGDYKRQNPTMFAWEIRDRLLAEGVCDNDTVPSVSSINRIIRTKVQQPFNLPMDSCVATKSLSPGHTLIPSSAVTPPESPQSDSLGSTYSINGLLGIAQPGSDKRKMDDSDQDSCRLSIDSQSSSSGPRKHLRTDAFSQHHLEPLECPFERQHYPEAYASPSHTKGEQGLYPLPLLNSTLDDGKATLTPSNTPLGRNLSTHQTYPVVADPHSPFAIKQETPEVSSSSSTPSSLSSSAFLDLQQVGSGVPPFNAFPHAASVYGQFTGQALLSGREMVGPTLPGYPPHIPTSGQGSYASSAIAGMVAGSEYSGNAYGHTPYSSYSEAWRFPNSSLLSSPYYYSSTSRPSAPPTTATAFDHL
Experiment: PAX8 transcriptional activity inhibition in RMG-I – RMG-I cells, luciferase, cherry-pick, dose response (AID 687027);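 also: luciferase reporter driven by Pax8 target thyroperoxidase promoter measured by SteadyGlo luminescence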
Type: functional, cell-based
The source made the active and inactive calls.
Quick reference: AC50 of the listed items.

Example entries begin here.
Molecule: C[C@@H]1CCCCO[C@H](CN(C)C(=O)Cc2ccccc2)[C@H](C)CN([C@@H](C)CO)C(=O)c2cc(NC(=O)Nc3ccc(C(F)(F)F)cc3)ccc2O1
Recorded Measurement: 8.05 µM (active)
//
Molecule: O=C(COc1ccccc1-c1ccccc1)N/N=C/c1ccc2ccccc2c1
Recorded Measurement: 2.1 µM (active)
//
Molecule: Cc1ccc(-c2csc(NC3OC(=O)c4ccccc43)n2)cc1 (configuration not stated)
Recorded Measurement: 7.58 µM (active)

For reference, reported AC50 for Cc1cc(C(C)(C)C)cc(C)c1C[n+]1c2n(c3ccc(C(F)(F)F)cc31)CCCCC2 stands at 4.37 µM (active)

For reference, reported AC50 for COc1cc(/C=C2\COC/C(=C\c3cc(OC)c(OC)c(OC)c3)C2=O)cc(OC)c1OC stands at 1.56 µM (active)

Lab note: O=C(C[C@H]1CC[C@H]2[C@@H](COC[C@@H](O)CN2S(=O)(=O)c2ccccc2Cl)O1)N1CCC(Cc2ccccc2)CC1 gave AC50 of 23.7 µM (active)

Reported AC50 of C[C@@H]1CCCCO[C@@H](CN(C)S(=O)(=O)c2ccc(Cl)cc2)[C@H](C)CN([C@H](C)CO)C(=O)c2cc(NS(=O)(=O)c3ccc(Cl)cc3)ccc2O1 : 3.27 µM (active)

###

Biological target: Corticotropin-releasing factor receptor 2/Corticotropin-releasing factor-binding protein (Homo sapiens, UniProt P24387+Q13324)
Sequence (Q13324 whole entry): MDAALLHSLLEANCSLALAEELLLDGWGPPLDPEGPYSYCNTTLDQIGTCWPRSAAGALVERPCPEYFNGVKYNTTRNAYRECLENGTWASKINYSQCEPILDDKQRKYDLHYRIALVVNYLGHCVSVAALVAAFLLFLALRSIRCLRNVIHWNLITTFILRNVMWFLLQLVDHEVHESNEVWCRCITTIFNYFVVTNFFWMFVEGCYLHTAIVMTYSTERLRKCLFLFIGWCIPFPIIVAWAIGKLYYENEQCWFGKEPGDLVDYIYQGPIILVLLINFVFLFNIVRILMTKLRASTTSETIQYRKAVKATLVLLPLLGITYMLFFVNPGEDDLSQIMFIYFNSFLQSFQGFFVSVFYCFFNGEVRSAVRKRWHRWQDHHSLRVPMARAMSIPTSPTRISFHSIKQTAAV
Sequence (P24387 whole entry): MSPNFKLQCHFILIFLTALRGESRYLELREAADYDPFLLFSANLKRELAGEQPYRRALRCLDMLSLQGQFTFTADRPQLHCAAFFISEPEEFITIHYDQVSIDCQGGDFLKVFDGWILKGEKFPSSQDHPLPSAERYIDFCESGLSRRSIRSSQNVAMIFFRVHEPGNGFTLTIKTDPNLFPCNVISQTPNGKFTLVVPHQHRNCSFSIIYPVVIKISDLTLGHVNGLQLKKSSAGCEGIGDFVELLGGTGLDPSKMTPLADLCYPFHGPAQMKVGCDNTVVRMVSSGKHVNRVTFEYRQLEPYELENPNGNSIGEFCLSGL
Test: activators of CRF receptor 2 with binding protein – uHTS hits, confirmation (AID 602473)
Assay type: functional
Conditions: read-out: EC50_Mean
The source made the active and inactive calls.
Respond with a class label; see yes (active), no (inactive)

Sample answers from the record:
Compound: Cc1cc2c(C(F)(F)F)cc(=O)oc2c2c1NCCC2
Label Value: yes
//
Compound: C=C(C)CSc1nc2c(cc1C#N)CCC2
Label Value: no
//
Compound: CSc1nc2cc(Cl)ccc2s1
Label Value: no
//
Compound: COc1ccc(C(C(=O)NC2CCCCC2)N(Cc2cccs2)C(=O)Cc2c[nH]c3ccccc23)cc1OC (stereo unspecified)
Label Value: no
//
Compound: COCCn1c(-c2ccccc2)cs/c1=N\c1cccnc1
Label Value: no

Please look at the following compound next.
Q: Per the records of this test, what outcome belongs to O=C(COc1ccc(Cl)cc1Cl)Nc1ccccc1NS(=O)(=O)c1cccs1 ?
Ans: yes

###

Form: system (Cytochrome P450 2D6 (Homo sapiens, UniProt P10635)), quantity (AC50), values below.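 Also: CYP2D6 member of a cytochrome P450 panel assay.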

Compound: O=C1/C(=C\c2ccccn2)SC(=S)N1Nc1ncc(C(F)(F)F)cc1Cl
AC50: 17.8 µM (inconclusive)

Compound: C=CCSc1nn2c(=O)c3ccccc3nc2s1
AC50: 25.1 µM (inconclusive)

Compound: CCc1nnc(NC(=O)C2Cc3ccccc3CN2S(=O)(=O)c2ccc(C)cc2)s1 (configuration not stated)
AC50: 15.8 µM (inconclusive)

Value sought: AC50, system Cytochrome P450 2D6 (Homo sapiens, UniProt P10635), item Clc1ccc(-c2nc3ncccn3c2Nc2ccc3c(c2)OCCO3)cc1 . Result: 31.6 µM (inconclusive)

So the reported AC50 for C[C@H](CO)NC(=O)[C@H](C)[C@H]1C[C@]1(C)[C@H](NC(=O)OCc1ccccc1)c1ccccc1 , on Cytochrome P450 2D6 (Homo sapiens, UniProt P10635), turned out to be 15.8 µM (inconclusive)

Field AC50 (system: Cytochrome P450 2D6 (Homo sapiens, UniProt P10635)) for entry CC(C)(C)c1ccc(C(=O)NCCC(=O)NCc2ccco2)cc1 = 22.4 µM (inconclusive)

Observed AC50, Cytochrome P450 2D6 (Homo sapiens, UniProt P10635), CCc1cccc2nc3c(c([Si](C)(C)C)c12)Cn1c-3cccc1=O : 39.8 µM (inconclusive)

Record COc1cccc([C@@H]2Oc3ccc(OC)cc3/C(=N/O[C@@H](C)CN3CCCCc4nc(C)c(C)cc43)[C@@H]2O)c1 has Cytochrome P450 2D6 (Homo sapiens, UniProt P10635) AC50 equal to 3.16 µM (inconclusive)

Record for O=C(CSc1nccn1-c1ccccc1)c1ccc(Cl)cc1 under target or system Cytochrome P450 2D6 (Homo sapiens, UniProt P10635): AC50 reported as 3.16 µM (inconclusive)

The reported AC50 value, Cytochrome P450 2D6 (Homo sapiens, UniProt P10635), for O=C(C=C1SCCS1)/C=C/c1ccco1 reads 17.8 µM (inconclusive)

Cytochrome P450 2D6 (Homo sapiens, UniProt P10635) AC50 of COc1ccc(NC(=O)N2CC3(CCN(C(C)=O)CC3)C2)cc1 is 12.6 µM (inconclusive)

Tested system Cytochrome P450 2D6 (Homo sapiens, UniProt P10635); AC50 recorded for Cc1ccc(SCCCn2cnc3ccccc3c2=O)cc1 was 1 µM (inconclusive)

Query O=[N+]([O-])c1cccnc1NCCNc1ncc(C(F)(F)F)cc1Cl on Cytochrome P450 2D6 (Homo sapiens, UniProt P10635); AC50 returned: 14.1 µM (inconclusive)

Measured AC50 for this entry COCCNc1ncnc2ccc(-c3ccc(N(C)C)cc3)cc12 on Cytochrome P450 2D6 (Homo sapiens, UniProt P10635): 20 µM (inconclusive)

For COc1ccccc1CN1CCCC2(CCNCC2)C1 on Cytochrome P450 2D6 (Homo sapiens, UniProt P10635), measured AC50 was 20 µM (inconclusive)

Cytochrome P450 2D6 (Homo sapiens, UniProt P10635) data for Cc1c(C)n(C)c2ccc(C(=O)Nc3cccc4ccccc34)cc12 ; its AC50: 11.2 µM (inconclusive)

Item C/C(=N\OC(=O)NC1CCCCC1)c1sc(-c2ccccc2)nc1C ; assay system Cytochrome P450 2D6 (Homo sapiens, UniProt P10635); AC50 reported as 28.2 µM (inconclusive)

Tested system Cytochrome P450 2D6 (Homo sapiens, UniProt P10635); AC50 recorded for O=C(C1CCN(S(=O)(=O)c2cccc3nsnc23)CC1)N1CCn2c1nc1ccccc12 was 17.8 µM (inconclusive)

Summary line: COc1cc(NC(=O)c2cc(Cl)ccc2Cl)ccc1-c1cc2ccccc2oc1=O , Cytochrome P450 2D6 (Homo sapiens, UniProt P10635), reported AC50 = 25.1 µM (inconclusive)

###

Target: Eukaryotic translation initiation factor 4E (Mus musculus)
Sequence (P63073 whole entry): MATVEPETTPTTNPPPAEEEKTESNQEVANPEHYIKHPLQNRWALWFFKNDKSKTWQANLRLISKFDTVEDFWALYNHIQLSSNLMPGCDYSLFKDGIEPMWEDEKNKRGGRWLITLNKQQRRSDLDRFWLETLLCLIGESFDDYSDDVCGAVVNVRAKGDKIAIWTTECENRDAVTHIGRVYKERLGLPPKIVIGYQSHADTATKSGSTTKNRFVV
Experiment: blockers of eIF4G binding by eIF4E – biochemical, TR-FRET, dose response (AID 855);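 also: potency for disrupting eIF4E binding to eIF4GI seen as loss of FRET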
Assay type: functional
The source made the active and inactive calls.
Respond with a class label; see active, inactive

Molecule: CNc1nc(-c2ccccc2)[n+](-c2ccc(C)cc2)s1
Label Value: active

Q: GET /call?item= CCN(CC)S(=O)(=O)c1ccc(OC)c(NC(=O)Cc2cccs2)c1 returns the recorded outcome of this test.
Ans: inactive

Q: Record lookup: outcome of this test for N#C/C(=C\c1ccc(OC(=O)c2ccc(Br)s2)cc1)c1nc2ccccc2[nH]1 ?
Ans: inactive

Q: How did this test come out for COc1ccc(C(=O)CN2C(=O)NC(C)(c3ccc(C)cc3)C2=O)cc1OC (configuration not stated) ?
Ans: inactive

Q: Given Nc1ccc2[nH]c(-c3cc(Cl)c(N)c(Cl)c3)nc2c1 , state the outcome it received in this test.
Ans: inactive

Q: Answer briefly: the call reported for COCC(C)n1c(SCc2ccc(C(=O)OC)o2)nc2ccccc2c1=O (configuration not stated) in this assay.
Ans: inactive

Q: Could you kindly confirm the outcome this assay logged for COc1ccccc1-c1noc(-c2ccccc2)n1 ?
Ans: inactive
